B1: MLL5 (parent)
chain: TYLCERCQPRNLDKERAVLLQRRK

- Variants of: B1
- experiment: protein stability index of a GFP-peptide fusion (GPS, HEK-293T) (PSI 1-6); higher = more stable;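 note: lentivirally expressed fusions sorted by FACS into six bins by GFP to DsRed ratio, PSI derived from sequencing read proportions per bin multiplied by bin number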
- stated conditions: c terminus: a fixed tail appended
Recorded protein stability index values for a group of variants are listed next.
Returns: the value as a bare number; no unit string appended.

Solved entries:
- variant label: "R22N"
  protein stability index: 1.99
- variant label: "R23H"
  protein stability index: 2.05
- variant label: "N11K"
  protein stability index: 2.05
- variant label: "L12D"
  protein stability index: 2.01
- variant label: "Q21Y"
  protein stability index: 2.04
- variant label: "Q8K"
  protein stability index: 2.05

Task item: // returns reported protein stability index for input `R22G`
Reply: 1.98
